# key: entry, value: normalized growth
# run description: chemical genetic growth profiling, strain panel (AID 1159580);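 also: tested at 20 µM; growth read once vehicle control cultures reached saturation at 30 °C; 1 = growth at the plate median or of vehicle wells; lower values mean less growth of the strain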
# condition summary: S. cerevisiae deletion strains, growth OD, locus YPR111W, strain DBF20, hits give low values
In all, about 5,500 compounds went through this assay and about 2,000 (36%) were called active. About 18% were inconclusive and are not listed. Some of the results follow.
Give only the figure.

• C/C(=N/Nc1ccccc1)c1cc(Cl)cc(Cl)c1O = 0.938
• Cc1nn(Cc2nnc(SCc3cccc(C(F)(F)F)c3)o2)c(C)c1Br = 0.947
• O=C1/C(=C/c2cccs2)COc2ccccc21 = 0.907
• Oc1ccc(N=Nc2ccccn2)c(O)c1 = 0.103
• CSC(=NNc1ccccc1)NC(=O)c1c(Cl)cccc1Cl = 0.948

Alright, here's another compound for you.
# normalized growth (compound: N#Cc1ccc(NC(=O)Nc2cccc3ccccc23)cc1 ) is 0.952

====

# run description: chemical genetic growth profiling, strain panel (AID 1159580)
# condition summary: S. cerevisiae deletion strains, growth OD, locus YBR171W, strain sec66
Screen size: about 5,500 compounds; about 2,000 (36%) were called active. Not shown: some 18% with an inconclusive outcome. Rule as the data show it: active = normalized growth mostly below about 0.91 (no sharp cut-off); inconclusive = no clear call, values can overlap the other calls; inactive = mostly above about 0.92. This is one part of the list.
Respond with a class label; see active, inactive

- O=c1cc(-c2ccccc2)oc2cc(O)c(O)c(O)c12: active
- O=[N+]([O-])c1cccc2c(Br)[nH]nc12: inactive
- COc1cc([C@H]2Oc3cc([C@H]4Oc5cc(O)cc(O)c5C(=O)[C@@H]4O)ccc3O[C@@H]2CO)ccc1O: inactive

QUERY: Please let me know the test result on file for COc1cc(C)c(C(=O)Oc2cc(C)c(C(=O)O)c(O)c2C)c(OC)c1C .
RESULT: inactive

QUERY: Dear colleague, could you share the recorded outcome for CC1CCC2(OC1)OC1CC3C4CCC5C[C@@H](O)CCC5(C)C4=CCC3(C)C1[C@@H]2C (stereo not given in full) when you have a moment?
RESULT: inactive

QUERY: Given CC(=O)N=c1sc(S(N)(=O)=O)nn1C , state the outcome it received in this test.
RESULT: inactive

QUERY: Hi, sorry to bother you, what did the test record for O=c1cc(-c2ccccc2)oc2cccc(O)c12 ?
RESULT: inactive

QUERY: Recorded call for CN(C)C(=O)Nc1ccc(Cl)c(Cl)c1 ?
RESULT: inactive

QUERY: Just curious, what result did CN[C@@H]1[C@H](OC2[C@H](O[C@H]3[C@H](O)[C@@H](O)[C@H](N=C(N)N)[C@@H](O)[C@@H]3N=C(N)N)O[C@@H](C)[C@]2(O)C=O)O[C@@H](CO)[C@H](O)[C@H]1O (stereo not given in full) get here?
RESULT: inactive

QUERY: Record request — test call for CC(=O)Nc1nnc(S(N)(=O)=O)s1
RESULT: inactive

====

# run description: chemical genetic growth profiling, strain panel (AID 1159580)
# condition summary: S. cerevisiae deletion strains, growth OD, locus YDR137W, strain rgp1, hits give low values
Out of some 5,500 compounds screened, about 2,000 (36%) were called active. Roughly 18% stayed inconclusive and do not appear here. The list shows a part of the results.
Form field: normalized growth (one value per entry).

Some solved cases for reference:
• CCCCCC1C(=O)CCC1CC(=O)OC (stereo not given) = 0.996 (inactive)
• NC(Cc1ccc(F)cc1)C(=O)O (stereo not given) = 0.994 (inactive)
• CCCCCC1C(=O)CCC1CC(=O)O (stereo not given) = 0.998 (inactive)
• Nc1cc(C(Cl)=C(Cl)Cl)c(S(N)(=O)=O)cc1S(N)(=O)=O = 0.998 (inactive)
• CN[C@@H]1[C@H](OC2[C@H](O[C@H]3[C@H](O)[C@@H](O)[C@H](N=C(N)N)[C@@H](O)[C@@H]3N=C(N)N)O[C@@H](C)[C@]2(O)C=O)O[C@@H](CO)[C@H](O)[C@H]1O (stereo not given in full) = 1.03 (inactive)

Given item CN(C)CCC(c1ccc(Br)cc1)c1ccccn1 (stereo not given) , the value recorded as its normalized growth is 1.01 (inactive)

====

# run description: chemical genetic growth profiling, strain panel (AID 1159580)
# condition summary: S. cerevisiae deletion strains, growth OD, locus YPL055C, strain LGE1, hits give low values
Among all 5,500 compounds or so, about 2,000 (36%) were called active. Inconclusive results (about 18%) are left out. The list shows a part of the results.
readout kind: normalized growth
Respond using a number only.

Previously resolved entries follow.
- CN1CCN(c2ccc3ccccc3n2)CC1: 0.925
- O=C(O)CC(CC(=O)Nc1ccc(I)cc1F)c1ccc(C(F)(F)F)cc1 (stereo unspecified): 0.968
- CCC(=O)c1ccc2c(c1)N(CC(C)N(C)C)c1ccccc1S2 (stereo unspecified): 0.949
- FC(F)(F)c1cc(-n2c(CCc3nc(-c4ccc(Cl)cc4)no3)n[nH]c2=S)cc(C(F)(F)F)c1: 0.994
- O=C(NCc1nc(-c2ccc(C(F)(F)F)cc2)no1)Nc1ccc(F)cc1F: 0.846
- C=C[C@H]1CN2CC[C@H]1C[C@@H]2[C@H](O)c1ccnc2ccccc12: 0.997

Entry Cc1ccc2cc(NC(=O)c3ccco3)ccc2n1 — recorded normalized growth = 0.92

Looking up O=c1cc(-c2ccccc2)oc2cc(O)cc(O)c12 , I see its normalized growth listed as 0.91

Lab book: normalized growth of Cc1nn(Cc2n[nH]c(=S)o2)c(C)c1Br noted as 0.955

Record summary for CCN(CC)C(C)CN1c2ccccc2Sc2ccccc21 (stereo unspecified) : reported normalized growth = 0.89

Record COc1c2c(nc3ccccc13)OC(C(C)(O)CO)C2 (stereo unspecified) . Reported normalized growth: 0.99

====

Collected normalized growth values appear next to each entry.
# run description: chemical genetic growth profiling, strain panel (AID 1159580);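 also: tested at 20 µM; growth read once vehicle control cultures reached saturation at 30 °C; 1 = growth at the plate median or of vehicle wells; lower values mean less growth of the strain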
# condition summary: S. cerevisiae deletion strains, growth OD, locus YOR069W, strain VPS5, hits give low values
In all, about 5,500 compounds went through this assay and about 2,000 (36%) were called active. About 18% were inconclusive and are not listed. Some of the results follow.
Answer with a bare number; do not write a unit.

Examples from the recorded data:
• C[C@@H]1CC2C3C[C@H](F)C4=CC(=O)C=C[C@]4(C)[C@@]3(F)[C@@H](O)C[C@]2(C)[C@@]1(O)C(=O)COC(=O)C(C)(C)C (stereo not given in full) = 1.01
• COc1c2ccoc2nc2c(OC)c(OCC(O)C(C)(C)O)ccc12 (stereo not given) = 0.99
• C[C@H](CCC(=O)O)[C@H]1CCC2C3C(CC[C@@]21C)[C@@]1(C)CC[C@@H](O)C[C@H]1C[C@H]3O (stereo not given in full) = 1.03
• O=C(O)c1ccccc1C(=O)Nc1ccc(S(=O)(=O)Nc2nccs2)cc1 = 1
• CCN(CCCc1ccccc1)CCCc1ccccc1 = 1.01

Data point: CN(C(=O)CN(CCO)CC(=O)N(C)C(C)(C)Cc1ccccc1)C(C)(C)Cc1ccccc1 ; normalized growth = 0.991

Sample CO[C@]12C[C@@H](COC(=O)c3cncc(Br)c3)CN(C)[C@@H]1Cc1cn(C)c3cccc2c13 ; normalized growth observed: 1

Looking up COc1c2ccccc2nc2occc12 , I found its normalized growth recorded as 0.985

Looking up NNCCc1ccccc1 , I see its normalized growth listed as 0.993

Record CN1CC(CNC(=O)OCc2ccccc2)CC2c3cccc4c3c(cn4C)CC21 (stereo not given) . Reported normalized growth: 0.997

====

# run description: chemical genetic growth profiling, strain panel (AID 1159580);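 also: tested at 20 µM; growth read once vehicle control cultures reached saturation at 30 °C; 1 = growth at the plate median or of vehicle wells; lower values mean less growth of the strain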
# condition summary: S. cerevisiae deletion strains, growth OD, locus YMR263W, strain SAP30, hits give low values
In all, about 5,500 compounds went through this assay and about 2,000 (36%) were called active. Roughly 18% stayed inconclusive and do not appear here. The list shows a part of the results.
We label by threshold. Values of normalized growth strictly beneath 1 are True. Values of 1 and up are False.

These recorded examples may help you get a feel for the data.
* COc1ccc(N=Cc2ccccc2O)cc1 | True
* COc1ccc(C(=O)N2CCCC2=O)cc1 | True
* CN(C)CCOC(=O)COc1ccc(Cl)cc1 | False

QUERY: For O=C(O)CC(CC(=O)Nc1ccc(I)cc1F)c1ccc(C(F)(F)F)cc1 (configuration not stated) , is the recorded normalized growth below the cut-off of 1?
RESULT: True

QUERY: Consider the compound CC(CCC(=O)O)[C@H]1CCC2C3C[C@H](O)[C@@H]4C[C@H](O)CC[C@]4(C)C3CC[C@@]21C (some centres not stated) . Is its normalized growth strictly less than 1?
RESULT: False

====

# run description: chemical genetic growth profiling, strain panel (AID 1159580);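 also: tested at 20 µM; growth read once vehicle control cultures reached saturation at 30 °C; 1 = growth at the plate median or of vehicle wells; lower values mean less growth of the strain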
# condition summary: S. cerevisiae deletion strains, growth OD, locus YLR320W, strain mms22
The whole screen tested about 5,500 compounds, of which about 2,000 (36%) were called active. About 18% were inconclusive and are not listed. Rule as the data show it: active = normalized growth mostly below about 0.91 (no sharp cut-off); inconclusive = no clear call, values can overlap the other calls; inactive = mostly above about 0.92. This is one part of the list.
Bench note: report the call from active, inactive

Past entries and their recorded results:
• O=c1[nH]cnc2[nH]ncc12 = inactive
• COc1c2ccoc2nc2c(OC)c(OCC(O)C(C)(C)O)ccc12 (stereo not drawn) = inactive
• CCCCCC1C(=O)CCC1CC(=O)O (stereo not drawn) = inactive

QUERY: Which outcome did this test record for the compound C=C1C2CCC3(C)C(c4ccoc4)OC(=O)CC13OC1CC(OC(C)=O)C(C)(C)C(CC(=O)OC)C12C (stereo not drawn) ?
RESULT: inactive

QUERY: // return assay outcome for O=[N+]([O-])c1cccc2cn[nH]c12
RESULT: inactive

QUERY: Tell me the recorded outcome of this test for C=C1[C@H]2CC[C@@]3(C)[C@H](c4ccoc4)OC(=O)C[C@]13O[C@H]1C[C@H](O)C(C)(C)[C@H](CC(=O)OC)[C@]12C .
RESULT: inactive

QUERY: Each compound tested received a call. Report the one for C=C1C2CC[C@@]3(C)[C@H](c4ccoc4)OC(=O)C[C@]13O[C@H]1CC(=O)C(C)(C)C(CC(=O)OC)[C@@]21C (stereo partly drawn) .
RESULT: inactive

QUERY: What classification did COc1ccc(C(=O)CC(=O)c2ccc(C(C)(C)C)cc2)cc1 end up with in this test?
RESULT: inactive

QUERY: Check the results log: what was the call for CC1(C)C(O)CC(O)C2(C)C1CC(O)C1(C)C2CCC2(C)C(c3ccoc3)OC(=O)C3OC321 (stereo not drawn) ?
RESULT: inactive

QUERY: What was the test verdict on CC(=O)Nc1nnc(S(N)(=O)=O)s1 ?
RESULT: inactive

QUERY: Called result for Cc1nc2ccccn2c(=O)c1CCN1CCC(C(=O)c2ccc(F)cc2)CC1
RESULT: inactive

QUERY: Please indicate how the test categorized O=[N+]([O-])c1cccc2c(Br)[nH]nc12 .
RESULT: inactive

QUERY: Which outcome did this test record for the compound COc1c2ccccc2nc2occc12 ?
RESULT: active
